assay: in vivo; settings: nude, mouse, iv
REPORTED_ENDPOINT: MTD at 3 weeks

The compound Nc1ncn([C@@H]2O[C@H](CO)[C@@H](O)C2(F)F)c(=O)n1 [NUC013, 5-aza-2′,2′-difluroro deoxycytidine] showed MTD at 3 weeks equal to > 120 mg/kg

Where do these numbers come from? They come from paper PMC5620609.
